Where do the numbers come from? From patent US20100143349A1.

Would you mind telling me the reported IC50 of each entry?
molecular target: T1, hRAGE-Fc (human, UniProt Q15109 23-342, biotin label in the selections and HTRF assays); experiment: HTRF competition, scFv vs labelled parental XT-M4 (competitor) on biotin hRAGE-Fc
T1 construct: extracellular domain; also called biotin labeled hRAGE-Fc; Biotin-labeled RAGE-Fc; not shown: Fc part
T1 sequence (Q15109 23-342): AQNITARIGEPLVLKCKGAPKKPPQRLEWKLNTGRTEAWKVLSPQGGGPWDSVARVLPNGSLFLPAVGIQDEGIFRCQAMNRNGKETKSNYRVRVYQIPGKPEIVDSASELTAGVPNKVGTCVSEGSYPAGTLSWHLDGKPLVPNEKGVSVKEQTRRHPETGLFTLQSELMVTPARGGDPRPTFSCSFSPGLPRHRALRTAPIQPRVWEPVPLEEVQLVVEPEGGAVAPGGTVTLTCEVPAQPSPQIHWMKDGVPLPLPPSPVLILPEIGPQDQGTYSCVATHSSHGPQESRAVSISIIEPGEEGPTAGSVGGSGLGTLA
Could you write the number and then its unit?

>>> experimentalresult("6A12 scFv (scFv) scFv: DIQMTQSPSSLSASVGDRVTITCRASQDVGIYVNWFQQKPGKAPRRLIYRATNLADGVPSRFSGSRSGTDFTLTISSLQPEDFATYYCLQYDAHPLTFGGGTKVEIKDGGGSGGGGSGGGGSSEVQLVESGGGLVQPGGSLRLSCAASGFTFNNYWMTWVRQAPGKGLEWVASIDNSGDNTYYPDSVKDRFTISRDNAKNSLYLQMNSLRAEDTAVYYCARGGDITTGFDYWGQGTLVTVSS")
"8.27 nM"
>>> experimentalresult("6C11 scFv (scFv) scFv: DIQMTQSPSSLSASVGDRVTITCRASQDVGIYVNWFQQKPGKAPRRLIYRATNLADGVPSRFSGSRSGTDFTLTISSLQPEDFATYYCLQYDAHPLTFGGGTKVEIKDGGGSGGGGSGGGGSSEVQLVESGGGLVQPGGSLRLSCAASGFTFNNYWMTWVRQAPGKGLEWVASIDNSGDNTYYPDSVKDRFTISRDNAKNSLYLQMNSLRAEDTAVYYCARGGDITTGFDYWGQGTLVTVSS")
"9.03 nM"

Could you now look at the following binder, please?
Record request: IC50 value, item 3C6 scFv (scFv) scFv: DIQMTQSPSSLSASVGDRVTITCRASQDVGIYVNWFQQKPGKAPRRLIYRATNLADGVPSRFSGSRSGTDFTLTISSLQPEDFATYYCLEFDEHPLTFGGGTKVEIKDGGGSGGGGSGGGGSSEVQLVESGGGLVQPGGSLRLSCAASGFTFNNYWMTWVRQAPGKGLEWVASIDNSGDNTYYPDSVKDRFTISRDNAKNSLYLQMNSLRAEDTAVYYCARGGDIVVGLDHWGQGTLVTVSS 1.26 nM
